system tested: AHR (Homo sapiens, UniProt P35869)
Sequence (P35869 11-848): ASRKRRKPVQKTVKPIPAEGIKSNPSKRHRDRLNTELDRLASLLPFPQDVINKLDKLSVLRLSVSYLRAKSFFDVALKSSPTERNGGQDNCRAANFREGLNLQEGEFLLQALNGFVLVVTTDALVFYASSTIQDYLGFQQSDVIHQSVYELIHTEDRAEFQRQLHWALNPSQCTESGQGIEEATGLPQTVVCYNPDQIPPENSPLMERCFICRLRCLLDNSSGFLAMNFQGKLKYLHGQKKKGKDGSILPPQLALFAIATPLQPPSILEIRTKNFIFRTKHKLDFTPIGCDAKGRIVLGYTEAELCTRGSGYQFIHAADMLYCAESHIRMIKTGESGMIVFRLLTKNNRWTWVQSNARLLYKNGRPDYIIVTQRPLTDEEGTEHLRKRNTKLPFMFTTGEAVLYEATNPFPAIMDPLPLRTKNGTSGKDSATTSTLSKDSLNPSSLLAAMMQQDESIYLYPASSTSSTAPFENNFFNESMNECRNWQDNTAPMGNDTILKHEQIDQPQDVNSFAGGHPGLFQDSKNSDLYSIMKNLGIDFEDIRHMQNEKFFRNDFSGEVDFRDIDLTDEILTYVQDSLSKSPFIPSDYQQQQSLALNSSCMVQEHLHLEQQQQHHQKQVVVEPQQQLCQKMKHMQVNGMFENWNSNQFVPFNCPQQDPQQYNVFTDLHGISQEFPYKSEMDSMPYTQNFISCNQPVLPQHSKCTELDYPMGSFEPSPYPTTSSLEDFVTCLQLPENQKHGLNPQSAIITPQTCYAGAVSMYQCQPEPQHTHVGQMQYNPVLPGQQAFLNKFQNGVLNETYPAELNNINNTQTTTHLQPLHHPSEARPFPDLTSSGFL
measurement notes: In vitro assay 1: antagonism in human cell line (transactivation assay, U87 cells prestimulated with kynurenic acid, DRE firefly luciferase reporter)
Format: cell-based
Design: host or cells: U87 glioblastoma cells, stably transfected with DRE firefly luciferase and renilla reporter constructs
assay context: 150 uM kynurenic acid, 20 hours, read-out: Assay 1: AHR-luc Hum Antagonism IC50
pIC50: −log10 of the molar value.
pIC50 for assorted molecules
measured metric: pIC50

>>> reported_measurement("Cc1cc(-n2nc(-c3ccc(Cl)cc3)cc(C(=O)N[C@@H](C)CO)c2=O)cs1")
7.95
>>> reported_measurement("O=C(N[C@@H]1CC[C@@H]1O)c1cc(-c2ccc(Cl)cc2)nn(-c2cccnc2)c1=O (single isomer, unassigned) [Example 249]")
7.82
>>> reported_measurement("C[C@H](NC(=O)c1cc(-c2ccc(C(F)(F)F)nc2)nn(-c2cncc(F)c2)c1=O)C(C)(C)O")
7.30
>>> reported_measurement("CC(C)[C@@H](CO)NC(=O)c1cc(-c2ccc(Cl)cc2)nn(-c2cncc(F)c2)c1=O")
8.34
>>> reported_measurement("O=C(NCC(O)C(F)F)c1cc(-c2ccc(Cl)cc2)nn(-c2cccnc2)c1=O (racemic) [Example 79]")
7.40
>>> reported_measurement("O=C(N[C@H](CO)CF)c1cc(-c2ccc(C(F)(F)F)cc2)nn(-c2cnsc2)c1=O")
9.07
>>> reported_measurement("Cn1cc(-n2nc(-c3ccc(Cl)cc3)cc(C(=O)NCC(O)C(F)(F)F)c2=O)cn1 (stereo not shown) [Example 18]")
7.85

Attribution: patent US12522594B2
